From: PubChem BioAssay (NCI)

Tested on: MALME-3M melanoma
Experiment: NCI-60 one-dose screen, 48 h (100 = growth as untreated, 0 = no growth, -100 = all killed)
Conditions: 10 µM unless noted
About 83,000 compounds went through this panel and 20% of them were active in at least one assay; those are over-represented in the sample as a whole.
Catalogue of compounds with associated growth
Numbers only; they are read as %.

The following compounds have reported results that may help.
# compound, u, growth
data = [
    ("Cc1ccccc1NC(=O)N/C(N)=N/c1nc(C)c(C)s1", "%", 57.1),
    ("CCOC(=O)c1ccc(N2NC(=O)/C(=C/c3ccc([N+](=O)[O-])o3)C2=O)cc1", "%", 105),
    ("O=C(N=c1oc2ccccc2cc1-c1cc2ccccc2[nH]1)c1ccc(Cl)cc1", "%", 94.1),
]

Look up growth: O=S(=O)(O)c1ccc(N/N=C/c2ccccc2Cl)cc1 109

Next compound up: COc1ccc(C(=O)/C=C/c2c(C(F)(F)F)nc3sccn23)cc1OC 71.4

Next compound up: O=C(CSc1nnc(-c2ccc(NC(=O)c3cccnc3)cc2)o1)N[C@@H](Cc1ccc(O)cc1)C(=O)O 102
